Measured IC50, listed per entry for reference.
Target System: GST-tagged KRAS-G12V (2-169) (Homo sapiens, UniProt P01116, G12V)
Sequence (P01116 2-169 isoform P01116-2 G12V): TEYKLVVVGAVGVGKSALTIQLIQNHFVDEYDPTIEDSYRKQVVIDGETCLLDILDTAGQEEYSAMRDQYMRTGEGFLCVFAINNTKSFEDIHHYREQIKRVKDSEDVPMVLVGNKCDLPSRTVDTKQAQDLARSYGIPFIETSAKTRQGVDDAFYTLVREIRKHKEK
Assay: Nucleotide exchange assay (NEA), SOS-mediated, HTRF, KRAS G12V
Applied Conditions: Table 4; IC50 extracted at 90 min; 80 nM SOS
Assay Readout: IC50

> print(dat)
                                    compound                             target.system  assay.readout    value.reported
 1  C[C@@H]1[C@H](CO)CCCN1c1nc(OC[C@@]23CCCN2C[C@H](F)C3)nc(N2CC3(CCc4sc(N)c(C#N)c43)C2)n1 (racemic) [Compound 24]  GST-tagged KRAS-G12V (2-169) (Homo sapiens, UniProt P01116, G12V)           IC50    100 to 1000 nM
 2  N#Cc1c(N)sc2c1C1(CN(c3nc(OCC4(CN5CCOCC5)CC4)nc(N4CCNC[C@@H]4C(F)F)n3)C1)SC2 [Compound 193]  GST-tagged KRAS-G12V (2-169) (Homo sapiens, UniProt P01116, G12V)           IC50      10 to 100 nM
 3  N#Cc1c(N)sc2c1C1(CC2)CN(c2nc(OCC3(CN4CCOCC4)CC3)nc(OC3COCC3O)n2)C1 (racemic) [Compound 77]  GST-tagged KRAS-G12V (2-169) (Homo sapiens, UniProt P01116, G12V)           IC50    100 to 1000 nM
 4  CN(C)CC1(COc2nc(N3CC4(C3)SCc3sc(N)c(C#N)c34)nc(N3CCC[C@@](C)(O)C3)n2)CC1(F)F (stereo partly shown) [Compound 104]  GST-tagged KRAS-G12V (2-169) (Homo sapiens, UniProt P01116, G12V)           IC50           < 10 nM
 5  C[C@@]1(CO)C[C@@H](O)CN1c1nc(OC[C@@]23CCCN2C[C@H](F)C3)nc(N2CC3(CCc4sc(N)c(C#N)c43)C2)n1 [Compound 59]  GST-tagged KRAS-G12V (2-169) (Homo sapiens, UniProt P01116, G12V)           IC50      10 to 100 nM
 6  N#Cc1c(N)sc2c1C1(CN(c3nc(OC[C@@]45CCCN4C[C@H](F)C5)nc(N4CC(O)NC(=O)C45CC5)n3)C1)SC2 (stereo partly shown) [Compound 255]  GST-tagged KRAS-G12V (2-169) (Homo sapiens, UniProt P01116, G12V)           IC50           < 10 nM
 7  N#Cc1c(N)sc2c1C1(CC2)CN(c2nc(OC[C@@]34CCCN3C[C@H](F)C4)nc(N3CCC4CC4(CO)C3)n2)C1 (stereo partly shown) [Compound 41]  GST-tagged KRAS-G12V (2-169) (Homo sapiens, UniProt P01116, G12V)           IC50    100 to 1000 nM
 8  N#Cc1c(N)sc2c1C1(CN(c3nc(OC[C@@]45CCCN4C[C@H](F)C5)nc(N(CCN)C4(C#N)CC4)n3)C1)SC2 [Compound 272]  GST-tagged KRAS-G12V (2-169) (Homo sapiens, UniProt P01116, G12V)           IC50      10 to 100 nM
 9  C[C@H](c1cccnc1N)N(C)c1nc(OCC2(N(C)C)CC2)nc(N2CC3(C2)SCc2sc(N)c(C#N)c23)n1 [Compound 181]  GST-tagged KRAS-G12V (2-169) (Homo sapiens, UniProt P01116, G12V)           IC50      10 to 100 nM
10  CC(c1cccnc1N)N(C)c1nc(OC[C@@H]2CCC(=O)N2)nc(N2CC3(CCc4sc(N)c(C#N)c43)C2)n1 (stereo partly shown) [Compound 112]  GST-tagged KRAS-G12V (2-169) (Homo sapiens, UniProt P01116, G12V)           IC50    100 to 1000 nM
11  N#Cc1c(N)sc2c1C1(CC2)CN(c2nc(OC[C@@]34CCCN3C[C@H](F)C4)nc(N3CCC[C@@H](O)[C@@H](O)C3)n2)C1 [Compound 81]  GST-tagged KRAS-G12V (2-169) (Homo sapiens, UniProt P01116, G12V)           IC50           < 10 nM
12  C[C@H](c1cccnc1N)N(c1nc(OC[C@@]23CCCN2C[C@H](F)C3)nc(N2CC3(C2)SCc2sc(N)c(C#N)c23)n1)C1CC1 [Compound 264]  GST-tagged KRAS-G12V (2-169) (Homo sapiens, UniProt P01116, G12V)           IC50           < 10 nM
13  CC(c1cccnc1O)N(C)c1nc(OC[C@@]23CCCN2C[C@H](F)C3)nc(N2CC3(CCc4sc(N)c(C#N)c43)C2)n1 (stereo partly shown) [Compound 138]  GST-tagged KRAS-G12V (2-169) (Homo sapiens, UniProt P01116, G12V)           IC50  1000 to 20000 nM
